Assay: NCI Yeast Anticancer Drug Screen. Data for the sgs1 mgt1 strain (AID 161);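 further: 0% = growth of cultures given vehicle only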
Details: S. cerevisiae sgs1 mgt1 strain, at 50.0 µM (retest, dose inferred, filed as 5.0), hits give high values
Procedure: Growth inhibition of yeast strains with defined genetic alterations is measured as a screen for potential anti-cancer activity. Selected strains with alterations in DNA damage repair or cell cycle control were exposed to compounds and growth inhibition was measured relative to vehicle treated controls. The strain used in this assay is sgs1 mgt1
This is part of a sample that, as a whole, favours compounds with a hit. Of some 79,000 tested, about 15% had one in any assay.
Quick list: growth inhibition per entry.
Numeric only. Scale: %

[
  {
    "COMPOUND": "O=P(N=P(c1ccccc1)(c1ccccc1)c1ccccc1)(c1ccccc1)c1ccccc1",
    "UNITS TEXT": "%",
    "growth inhibition": 99
  },
  {
    "COMPOUND": "O=C1C2=C(C(=O)c3cnccc31)C1C=CC2CC1 (configuration not stated)",
    "UNITS TEXT": "%",
    "growth inhibition": 78
  },
  {
    "COMPOUND": "CC(=O)NC1=C(Sc2ccc([N+](=O)[O-])cc2)C(=O)c2ccccc2C1=O",
    "UNITS TEXT": "%",
    "growth inhibition": 99
  },
  {
    "COMPOUND": "CCOC(=O)C(=O)CC1=Nc2ccccc2SC(c2cccc(C)c2)C1 (configuration not stated)",
    "UNITS TEXT": "%",
    "growth inhibition": 98
  },
  {
    "COMPOUND": "CC1CCC2(CC1)NC1=C(CC(C)CC1)C1=C2CC(C)CC1 (configuration not stated)",
    "UNITS TEXT": "%",
    "growth inhibition": 27
  },
  {
    "COMPOUND": "Nc1nc(-c2ccc(Cl)cc2)c(N=Nc2ccc(Br)cc2)s1",
    "UNITS TEXT": "%",
    "growth inhibition": 94
  }
]

**Q:** Give me measured growth inhibition, please, for this compound: `Cc1ccc(S(=O)(=O)N/N=C(\C=C\c2ccccc2)c2ccccc2)cc1`
**A:** 47

**Q:** For the compound `Cc1cc(NC(=S)SCc2ccc(Cl)cc2)ccc1Br` , report growth inhibition.
**A:** 99

**Q:** Quick one: give measured growth inhibition for `CCCOc1ccc(/C=N/NC(N)=S)cc1`
**A:** 74

**Q:** // fetch growth inhibition given entry NC1OC(COC(=O)c2ccccc2)C(O)C(OC(=O)c2ccccc2)C1OC(=O)c1ccccc1 (configuration not stated)
**A:** 98

**Q:** Identify growth inhibition associated with the compound `N#Cc1ncc(Cl)cc1[N+](=O)[O-]`
**A:** 99

**Q:** Read off the recorded growth inhibition for `COc1ccc2nc3cc(Cl)ccc3c(Nc3ccc(O)c(CN4CCN(C)CC4)c3)c2c1`
**A:** 6

**Q:** For the compound `CCOc1ccc2nc([NH-])sc2c1.CCOc1ccc2nc([NH-])sc2c1.CCOc1ccc2nc([NH-])sc2c1.CCOc1ccc2nc([NH-])sc2c1.[Cl][Rh][Cl]` , give its reported growth inhibition.
**A:** 63
